Recorded IC50 by entry
System: NIH/3T3 cells transfected with control vector (MOCK)
Assay: NIH/3T3 mock cell proliferation assay (CTG, counter assay)
Assay type: cell-based
Conditions: Mus musculus, NIH3T3; 72-hr incubation, CellTiter Glo; counter assay for general toxicity
Your answer is read as nM, so omit the unit and give the number.

Worked cases, IC50 given:
INSERT INTO assay_data (compound, measured_on, assay_endpoint, measure_unit, result_number) VALUES
  ('COc1cc2nc(-c3c(N[C@@H](C)c4ccccn4)c4nn(C)cc4[nH]c3=O)[nH]c2cc1OC [Compound 56]', 'NIH/3T3 cells transfected with control vector (MOCK)', 'IC50', 'nM', 857),
  ('CCn1cc2[nH]c(=O)c(-c3nc4c(F)c(OC)c(OC)cc4[nH]3)c(N[C@@H](C)c3ncccn3)c2n1 [Compound 41]', 'NIH/3T3 cells transfected with control vector (MOCK)', 'IC50', 'nM', 2280),
  ('CCC(Nc1c(-c2nc3ccc(OCCOC)cc3[nH]2)c(=O)[nH]c2cn(C)nc12)c1ncccn1 (single isomer, unassigned) [Compound 48]', 'NIH/3T3 cells transfected with control vector (MOCK)', 'IC50', 'nM', 396),
  ('CCn1cc2[nH]c(=O)c(-c3nc4ccc(OC)cc4[nH]3)c(N[C@@H](C)c3ncccn3)c2n1 [Compound 4]', 'NIH/3T3 cells transfected with control vector (MOCK)', 'IC50', 'nM', 735),
  ('C[C@H](Nc1c(-c2nc3ccc(F)cc3[nH]2)c(=O)[nH]c2cn(C)nc12)c1ncccn1 [Compound 28]', 'NIH/3T3 cells transfected with control vector (MOCK)', 'IC50', 'nM', 2030);

Query block: Could you tell me which IC50 is on file for COc1ccc2nc(-c3c(N[C@@H](C)c4ncccn4)c4nn(C)cc4[nH]c3=O)[nH]c2c1 (single isomer, unassigned) [Compound 1] ?
Result block: 987

Query block: Could you tell me which IC50 is on file for CCOc1cc2nc(-c3c(N[C@@H](C)c4ncccn4)c4nn(C)cc4[nH]c3=O)[nH]c2cc1OCC [Compound 53] ?
Result block: 535

----------
Target: human FGFR3 V555M enzyme (cytoplasmic domain carrying V555M mutation) (Homo sapiens, UniProt P22607, V555M)
Construct: cytoplasmic domain carrying V555M mutation, from Carna Biosciences
Sequence (P22607 397-806 V555M limits assumed): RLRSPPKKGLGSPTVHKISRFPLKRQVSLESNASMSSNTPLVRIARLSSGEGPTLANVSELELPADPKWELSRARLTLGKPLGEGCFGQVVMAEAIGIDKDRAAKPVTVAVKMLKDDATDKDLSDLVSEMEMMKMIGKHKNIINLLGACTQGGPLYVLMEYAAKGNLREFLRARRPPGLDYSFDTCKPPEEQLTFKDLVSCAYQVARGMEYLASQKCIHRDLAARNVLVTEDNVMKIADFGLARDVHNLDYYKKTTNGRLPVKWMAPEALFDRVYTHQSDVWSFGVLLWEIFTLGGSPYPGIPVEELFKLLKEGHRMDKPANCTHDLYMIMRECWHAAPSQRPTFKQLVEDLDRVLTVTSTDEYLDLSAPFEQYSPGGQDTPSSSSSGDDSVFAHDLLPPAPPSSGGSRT
Test: FGFR3 V555M mobility shift assay (enzymatic assay, Caliper)
Conditions: 30 μM ATP, 45 minutes at 30° C.
Recorded log10 IC50 by entry
Kindly note that the scale is log10 and the underlying IC50 is in nM.

Worked cases, log10 IC50 given:
INSERT INTO results (molecule, result_number) VALUES
  ('COCC(Nc1c(-c2nc3cnc(OC)cc3[nH]2)c(=O)[nH]c2cn(C)nc12)c1ncccn1 (single isomer, unassigned) [Compound 19]', 2.39),
  ('CCC(Nc1c(-c2nc3ccc(OCCOC)cc3[nH]2)c(=O)[nH]c2cn(C)nc12)c1ncccn1 (single isomer, unassigned) [Compound 49]', 1.77),
  ('COc1cnc2nc(-c3c(N[C@@H](C)c4ncccn4)c4nn(C)cc4[nH]c3=O)[nH]c2c1 [Compound 3]', -0.44),
  ('CCOc1cc2nc(-c3c(N[C@@H](C)c4ncccn4)c4nn(C)cc4[nH]c3=O)[nH]c2cc1OCC [Compound 53]', -0.53),
  ('COc1cc2[nH]c(-c3c(N[C@@H](C)c4ncccn4)c4nn(C)cc4[nH]c3=O)nc2cn1 [Compound 30]', -0.38),
  ('CCOc1ccc2nc(-c3c(N[C@@H](C)c4ncccn4)c4nn(CC)cc4[nH]c3=O)[nH]c2c1 [Compound 50]', -0.24),
  ('CCn1cc2[nH]c(=O)c(-c3nc4cc(OC)c(OC)cc4[nH]3)c(N[C@@H](C)c3ccccn3)c2n1 [Compound 51]', -0.21),
  ('CCOc1cc2[nH]c(-c3c(N[C@@H](C)c4ncccn4)c4nn(CC)cc4[nH]c3=O)nc2cc1OC [Compound 8]', -0.42),
  ('COCC(Nc1c(-c2nc3ccc(OC)cc3[nH]2)c(=O)[nH]c2cn(C)nc12)c1ncccn1 (single isomer, unassigned) [Compound 12]', 0.63),
  ('CCn1cc2[nH]c(=O)c(-c3nc4cc(OC)c(OCCOC)cc4[nH]3)c(N[C@@H](C)c3ncccn3)c2n1 [Compound 38]', -0.25);

Query block: Could you tell me which log10 IC50 is on file for COc1cnc2nc(-c3c(NC(c4ncccn4)C(C)C)c4nn(C)cc4[nH]c3=O)[nH]c2c1 (single isomer, unassigned) [Compound 39] ?
Result block: 1.69

Query block: Could you tell me which log10 IC50 is on file for COc1cc2nc(-c3c(N[C@@H](C)c4ccccn4)c4nn(C)cc4[nH]c3=O)[nH]c2cc1OC [Compound 56] ?
Result block: -0.53

Query block: Could you tell me which log10 IC50 is on file for CCC(Nc1c(-c2nc3ccc(OC)cc3[nH]2)c(=O)[nH]c2cn(C)nc12)c1ncccn1 (single isomer, unassigned) [Compound 17] ?
Result block: -0.02

----------
Tested on: NIH/3T3 cells transfected with control vector (MOCK)
Assay: NIH/3T3 mock cell proliferation assay (CTG, counter assay)
Format: cell-based
Conditions: Mus musculus, NIH3T3; 72-hr incubation, CellTiter Glo; counter assay for general toxicity
Assay endpoint: IC50 (nM)
Your answer is read as nM, so omit the unit and give the number.

INSERT INTO results (compound, assay_endpoint, result_number) VALUES
  ('COCCOc1cc2[nH]c(-c3c(NC(c4ncccn4)C(C)C)c4nn(C)cc4[nH]c3=O)nc2cc1OC (single isomer, unassigned)', 'IC50', 757),
  ('CCn1cc2[nH]c(=O)c(-c3nc4cc(OC)c(OCCOC)cc4[nH]3)c(N[C@@H](C)c3ncccn3)c2n1', 'IC50', 532),
  ('CC(C)C(Nc1c(-c2nc3cnccc3[nH]2)c(=O)[nH]c2cn(C)nc12)c1ncccn1 (single isomer, unassigned)', 'IC50', 3010),
  ('COc1cnc2nc(-c3c(N[C@@H](C)c4ncccn4)c4nn(C)cc4[nH]c3=O)[nH]c2c1', 'IC50', 776);

Query block: Could you tell me which IC50 is on file for COc1cc2nc(-c3c(N[C@H](c4ncccn4)C(C)C)c4nn(C)cc4[nH]c3=O)[nH]c2cc1OC (single isomer, unassigned) ?
Result block: 722

Query block: Could you tell me which IC50 is on file for COc1cc2[nH]c(-c3c(N[C@@H](C)c4ncccn4)c4nn(C)cc4[nH]c3=O)nc2c(F)c1OC ?
Result block: 2280

----------
Target: NIH/3T3 cells overexpressing FGFR3 WT-TACC3 fusion protein (Homo sapiens)
Construct: NIH/3T3 FGFR3 WT-TACC3 CTG (IC50); other: 72-hr incubation, CellTiter Glo; fused on or other part: C-terminal coiled-coil part of TACC3 (part of the key, as a fusion known from patients); Q9Y6A5 (Transforming acidic coiled-coil-containing protein 3)
Sequence (P22607 whole entry, change not shown, the tested form may be a part): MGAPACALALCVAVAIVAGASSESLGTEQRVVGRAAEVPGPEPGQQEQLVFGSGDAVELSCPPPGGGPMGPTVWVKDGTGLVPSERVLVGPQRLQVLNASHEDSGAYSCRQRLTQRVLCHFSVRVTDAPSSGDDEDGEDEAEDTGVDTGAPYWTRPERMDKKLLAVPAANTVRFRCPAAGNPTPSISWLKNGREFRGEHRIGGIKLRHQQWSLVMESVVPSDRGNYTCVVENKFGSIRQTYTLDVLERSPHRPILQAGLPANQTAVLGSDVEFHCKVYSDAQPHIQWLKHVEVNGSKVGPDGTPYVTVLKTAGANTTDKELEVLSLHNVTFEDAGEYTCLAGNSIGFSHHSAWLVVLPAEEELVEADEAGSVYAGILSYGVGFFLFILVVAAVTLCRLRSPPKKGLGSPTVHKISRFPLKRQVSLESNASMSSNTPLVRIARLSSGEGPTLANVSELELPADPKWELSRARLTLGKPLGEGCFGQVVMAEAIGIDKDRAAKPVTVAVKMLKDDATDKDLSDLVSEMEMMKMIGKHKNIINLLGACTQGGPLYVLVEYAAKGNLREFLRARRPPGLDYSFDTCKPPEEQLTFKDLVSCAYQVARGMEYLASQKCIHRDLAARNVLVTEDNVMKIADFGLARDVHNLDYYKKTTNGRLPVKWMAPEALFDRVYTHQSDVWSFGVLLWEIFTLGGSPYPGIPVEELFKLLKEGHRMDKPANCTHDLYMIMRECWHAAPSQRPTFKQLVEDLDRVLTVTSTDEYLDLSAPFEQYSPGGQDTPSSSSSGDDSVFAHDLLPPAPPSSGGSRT
Experiment: NIH/3T3 FGFR3 WT-TACC3 cell proliferation assay (CTG)
Format: cell-based
Conditions: 72-hr incubation, CellTiter Glo; read-out: NIH/3T3 FGFR3 WT-TACC3 CTG (IC50)
Description: NIH/3T3 FGFR3 WT-TACC3 Cell Proliferation Assay In day 1, 90 μL of cell suspension (NIH/3T3 cells overexpressing FGFR3 WT-TACC3 fusion protein) (total 30,000 cells per well in growth medium (DMEM containing 1% Glutamax, 10% FBS and 1% Pen/Strep)) was seeded in a 96-well plate and then incubated overnight at 37° C. and 5% CO2. […]
Assay endpoint: GI50 (µM)
Your answer is read as µM, so omit the unit and give the number.

Worked cases, GI50 given:
INSERT INTO results (compound, measured_on, assay_endpoint, result_number) VALUES
  ('CCC(Nc1c(-c2nc3cc(OC)c(OC)cc3[nH]2)c(=O)[nH]c2cn(C)nc12)c1ncccn1 (single isomer, unassigned)', 'NIH/3T3 cells overexpressing FGFR3 WT-TACC3 fusion protein (Homo sapiens)', 'GI50', 0.0125),
  ('CCn1cc2[nH]c(=O)c(-c3nc4cc(OC)c(OC)cc4[nH]3)c(N[C@@H](C)c3ccccn3)c2n1', 'NIH/3T3 cells overexpressing FGFR3 WT-TACC3 fusion protein (Homo sapiens)', 'GI50', 0.0302),
  ('CCn1cc2[nH]c(=O)c(-c3nc4c(OC)cc(OC)cc4[nH]3)c(N[C@@H](C)c3ncccn3)c2n1', 'NIH/3T3 cells overexpressing FGFR3 WT-TACC3 fusion protein (Homo sapiens)', 'GI50', 0.0344),
  ('CCn1cc2[nH]c(=O)c(-c3nc4cc(OC)c(OCCOC)cc4[nH]3)c(N[C@@H](C)c3ncccn3)c2n1', 'NIH/3T3 cells overexpressing FGFR3 WT-TACC3 fusion protein (Homo sapiens)', 'GI50', 0.0184),
  ('C[C@H](Nc1c(-c2nc3ccc(F)cc3[nH]2)c(=O)[nH]c2cn(C)nc12)c1ncccn1', 'NIH/3T3 cells overexpressing FGFR3 WT-TACC3 fusion protein (Homo sapiens)', 'GI50', 0.0233);

Query block: Could you tell me which GI50 is on file for COc1cc2[nH]c(-c3c(N[C@@H](C)c4ncccn4)c4nn(C)cc4[nH]c3=O)nc2c(F)c1OC ?
Result block: 0.0174

Data provenance is patent US11384099B2.
